Reference source: patent US9108921B2

Tested target: PKR R510Q (Homo sapiens, UniProt P30613, R510Q)
Sequence (P30613 whole entry R510Q): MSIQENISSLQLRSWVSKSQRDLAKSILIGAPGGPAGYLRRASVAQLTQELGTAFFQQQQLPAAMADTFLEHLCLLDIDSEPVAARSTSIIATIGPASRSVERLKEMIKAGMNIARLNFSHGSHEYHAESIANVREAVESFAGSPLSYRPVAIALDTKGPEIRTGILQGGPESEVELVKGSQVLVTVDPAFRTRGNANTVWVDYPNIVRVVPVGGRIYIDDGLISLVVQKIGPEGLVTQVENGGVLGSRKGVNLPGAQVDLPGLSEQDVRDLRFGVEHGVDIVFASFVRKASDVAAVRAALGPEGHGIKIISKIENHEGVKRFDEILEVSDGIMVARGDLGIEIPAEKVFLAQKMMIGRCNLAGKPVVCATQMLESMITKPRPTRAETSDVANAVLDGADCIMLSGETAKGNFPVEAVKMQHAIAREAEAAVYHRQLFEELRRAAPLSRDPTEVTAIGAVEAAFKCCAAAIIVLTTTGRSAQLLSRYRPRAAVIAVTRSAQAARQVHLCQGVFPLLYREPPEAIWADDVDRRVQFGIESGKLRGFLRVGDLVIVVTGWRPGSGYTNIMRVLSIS
Test: PKR Mutant Assay, AC50 against PKR R510Q
Assay type: biochemical
Setup conditions: mutant PKR R510Q enzyme
Metric name: AC50

Enquiry: Form field: AC50 recorded for O=C(c1ccc(NS(=O)(=O)c2cccc3nccnc23)c(F)c1)N1CCC(O)(c2ccccc2Cl)CC1 [Compound 251] with PKR R510Q (Homo sapiens, UniProt P30613, R510Q) (enter value)
Return: 0.101 to 1 µM

Enquiry: Form field: AC50 recorded for O=C(c1ccc(NS(=O)(=O)c2cccc3scnc23)cc1)N1CCC(O)(CCC(F)F)CC1 [Compound 235] with PKR R510Q (Homo sapiens, UniProt P30613, R510Q) (enter value)
Return: 0.101 to 1 µM

Enquiry: Form field: AC50 recorded for O=C(c1ccc(NS(=O)(=O)c2cccc3nccnc23)cc1)N1CCC(O)(CCC(F)(F)F)CC1 [Compound 221] with PKR R510Q (Homo sapiens, UniProt P30613, R510Q) (enter value)
Return: 0.101 to 1 µM

Enquiry: Form field: AC50 recorded for O=C(c1ccc(NS(=O)(=O)c2cccc3cccnc23)cc1)N1CCC(O)(c2cccc(C(F)(F)F)n2)CC1 [Compound 174] with PKR R510Q (Homo sapiens, UniProt P30613, R510Q) (enter value)
Return: 0.101 to 1 µM

Enquiry: Form field: AC50 recorded for CC(C)CC1(O)CCN(C(=O)c2ccc(NS(=O)(=O)c3cccc(O)c3N)cc2)CC1 [Compound 380] with PKR R510Q (Homo sapiens, UniProt P30613, R510Q) (enter value)
Return: 0.101 to 1 µM

Enquiry: Form field: AC50 recorded for CC(C)CCC1(O)CCN(C(=O)c2ccc(NS(=O)(=O)c3cccc4scnc34)cc2)CC1 [Compound 392] with PKR R510Q (Homo sapiens, UniProt P30613, R510Q) (enter value)
Return: < 0.1 µM

Enquiry: Form field: AC50 recorded for CC(C)CC1(O)CCN(C(=O)c2ccc(NS(=O)(=O)c3ccc(F)c4cccnc34)cc2)CC1 [Compound 203] with PKR R510Q (Homo sapiens, UniProt P30613, R510Q) (enter value)
Return: 0.101 to 1 µM

Enquiry: Form field: AC50 recorded for O=C(c1ccc(NS(=O)(=O)c2cccc3snnc23)cc1)N1CCC(O)(c2ccccc2Cl)CC1 [Compound 417] with PKR R510Q (Homo sapiens, UniProt P30613, R510Q) (enter value)
Return: > 10 µM

Enquiry: Form field: AC50 recorded for O=C(c1ccc(NS(=O)(=O)c2cccc3nccnc23)cc1)N1CCC(O)(CCCC(F)F)CC1 [Compound 400] with PKR R510Q (Homo sapiens, UniProt P30613, R510Q) (enter value)
Return: 0.101 to 1 µM

Enquiry: Form field: AC50 recorded for Nc1nc2c(S(=O)(=O)Nc3ccc(C(=O)N4CCC(O)(/C=C/CC(F)(F)F)CC4)cc3)cccc2s1 [Compound 425] with PKR R510Q (Homo sapiens, UniProt P30613, R510Q) (enter value)
Return: < 0.1 µM

Enquiry: Form field: AC50 recorded for O=C(c1ccc(NS(=O)(=O)c2cccc3cccnc23)cc1)N1CCC(O)(C2CC2)CC1 [Compound 260] with PKR R510Q (Homo sapiens, UniProt P30613, R510Q) (enter value)
Return: 1.01 to 10 µM

Enquiry: Form field: AC50 recorded for CC(C)CC1(O)CCN(C(=O)c2ccc(NS(=O)(=O)c3cccc4ccc(N)nc34)cc2)CC1 [Compound 402] with PKR R510Q (Homo sapiens, UniProt P30613, R510Q) (enter value)
Return: < 0.1 µM

Enquiry: Form field: AC50 recorded for CC(C)CC1(O)CCN(C(=O)c2ccc(NS(=O)(=O)c3csc4cccnc34)cc2)CC1 [Compound 269] with PKR R510Q (Homo sapiens, UniProt P30613, R510Q) (enter value)
Return: 1.01 to 10 µM

Enquiry: Form field: AC50 recorded for CC(C)(C)C1(O)CCN(C(=O)c2ccc(NS(=O)(=O)c3cccc4cccnc34)cc2)CC1 [Compound 195] with PKR R510Q (Homo sapiens, UniProt P30613, R510Q) (enter value)
Return: 0.101 to 1 µM

Enquiry: Form field: AC50 recorded for O=C(c1ccc(NS(=O)(=O)c2cccc3nccnc23)cc1)N1CCC(O)(CCCC(F)(F)F)CC1 [Compound 397] with PKR R510Q (Homo sapiens, UniProt P30613, R510Q) (enter value)
Return: < 0.1 µM

Enquiry: Form field: AC50 recorded for CC(C)CC1(O)CCN(C(=O)c2ccc(NS(=O)(=O)c3ccc(O)c4nccnc34)cc2)CC1 [Compound 289] with PKR R510Q (Homo sapiens, UniProt P30613, R510Q) (enter value)
Return: 1.01 to 10 µM

Enquiry: Form field: AC50 recorded for CC(C)(O)CCC1(O)CCN(C(=O)c2ccc(NS(=O)(=O)c3cccc4cccnc34)cc2)CC1 [Compound 292] with PKR R510Q (Homo sapiens, UniProt P30613, R510Q) (enter value)
Return: 1.01 to 10 µM

Enquiry: Form field: AC50 recorded for CNc1nc2c(S(=O)(=O)Nc3ccc(C(=O)N4CCC(O)(c5ccccc5Cl)CC4)cc3)cccc2s1 [Compound 409] with PKR R510Q (Homo sapiens, UniProt P30613, R510Q) (enter value)
Return: < 0.1 µM

Enquiry: Form field: AC50 recorded for COc1ncccc1C1(O)CCN(C(=O)c2ccc(NS(=O)(=O)c3cccc4cccnc34)cc2)CC1 [Compound 211] with PKR R510Q (Homo sapiens, UniProt P30613, R510Q) (enter value)
Return: 0.101 to 1 µM

Enquiry: Form field: AC50 recorded for Cn1nccc1CC1(O)CCN(C(=O)c2ccc(NS(=O)(=O)c3cccc4scnc34)cc2)CC1 [Compound 433] with PKR R510Q (Homo sapiens, UniProt P30613, R510Q) (enter value)
Return: 0.101 to 1 µM

Enquiry: Form field: AC50 recorded for O=C(c1ccc(NS(=O)(=O)c2ccc(F)c3scnc23)cc1)N1CCC(O)(c2ccccc2Cl)CC1 [Compound 231] with PKR R510Q (Homo sapiens, UniProt P30613, R510Q) (enter value)
Return: 1.01 to 10 µM

Enquiry: Form field: AC50 recorded for O=C(c1ccc(NS(=O)(=O)c2cccc3cccnc23)cc1)N1CCC(O)(c2cccnc2F)CC1 [Compound 217] with PKR R510Q (Homo sapiens, UniProt P30613, R510Q) (enter value)
Return: 0.101 to 1 µM

Enquiry: Form field: AC50 recorded for O=C(c1ccc(NS(=O)(=O)c2cccc3cccnc23)cc1)N1CCC(O)(c2ccccc2O)CC1 [Compound 228] with PKR R510Q (Homo sapiens, UniProt P30613, R510Q) (enter value)
Return: 1.01 to 10 µM

Enquiry: Form field: AC50 recorded for CC(F)(F)CCC1(O)CCN(C(=O)c2ccc(NS(=O)(=O)c3cccc4scnc34)cc2)CC1 [Compound 440] with PKR R510Q (Homo sapiens, UniProt P30613, R510Q) (enter value)
Return: 0.101 to 1 µM

Enquiry: Form field: AC50 recorded for CCCC1(O)CCN(C(=O)c2ccc(NS(=O)(=O)c3cccc4cccnc34)cc2)CC1 [Compound 183] with PKR R510Q (Homo sapiens, UniProt P30613, R510Q) (enter value)
Return: 0.101 to 1 µM

Enquiry: Form field: AC50 recorded for O=C(c1ccc(NS(=O)(=O)c2cccc3cccnc23)cc1)N1CCC(O)(c2ccccc2C(F)(F)F)CC1 [Compound 126] with PKR R510Q (Homo sapiens, UniProt P30613, R510Q) (enter value)
Return: < 0.1 µM

Enquiry: Form field: AC50 recorded for O=C(c1ccc(NS(=O)(=O)c2cccc3cccnc23)cc1)N1CCC(O)(c2cnsc2)CC1 [Compound 180] with PKR R510Q (Homo sapiens, UniProt P30613, R510Q) (enter value)
Return: 0.101 to 1 µM

Enquiry: Form field: AC50 recorded for O=C(c1ccc(NS(=O)(=O)c2cccc3cccnc23)cc1)N1CCC(O)(c2cccc(C(F)(F)F)c2)CC1 [Compound 199] with PKR R510Q (Homo sapiens, UniProt P30613, R510Q) (enter value)
Return: 0.101 to 1 µM

Enquiry: Form field: AC50 recorded for CC(C)CC1(CO)CCN(C(=O)c2ccc(NS(=O)(=O)c3cccc4scnc34)cc2)CC1 [Compound 216] with PKR R510Q (Homo sapiens, UniProt P30613, R510Q) (enter value)
Return: 0.101 to 1 µM

Enquiry: Form field: AC50 recorded for Cc1nc2c(S(=O)(=O)Nc3ccc(C(=O)N4CCC(O)(c5ccccc5Cl)CC4)cc3)cccc2s1 [Compound 293] with PKR R510Q (Homo sapiens, UniProt P30613, R510Q) (enter value)
Return: 1.01 to 10 µM
